Tested on: BT-549 breast
Test: NCI-60 one-dose screen, 48 h
Details: 10 µM unless noted
The panel holds about 83,000 compounds, 20% with a hit somewhere; the sample as a whole holds those more often. Active and inactive are the calls of the source. Rule for the calls: active = growth percent below 10; inactive = the rest.
The reply should be one of these categories: class 1 = active, class 0 = inactive

{"columns": ["compound", "assignedCategory"],
 "data": [
  ["O=c1[nH]c(=O)n(Cc2ccc(F)cc2)cc1F", "class 0"]
]}

Please indicate how the test categorized CSc1nnc(-c2sc3nnc(-c4ccccc4)c(-c4ccccc4)c3c2O)o1 .
class 0

Queued: Oc1cccc(Nc2nc(-c3ccccn3)cs2)c1
class 0

Queued: NS(=O)(=O)c1ccc(C(=O)N/N=C(\CS(=O)(=O)c2ccccc2)c2cc3cc(Br)ccc3o2)cc1
class 0

====

Test system: SF-539 CNS
Experiment: NCI-60 one-dose screen, 48 h
Details: 10 µM unless noted
This is part of a sample that, as a whole, favours compounds with a hit. Of some 83,000 tested, about 20% had one in any assay. Calls of active or inactive are those of the source. How the source made its calls: active means growth percent below 10; inactive means the rest.
The reply should be one of these categories: active, inactive

{"columns": ["molecule", "targetOrTestSystem", "assignedCategory"],
 "data": [
  ["O=c1nc(NO)[nH]c(=O)n1Cc1ccccc1", "SF-539 CNS", "inactive"],
  ["COc1ccc(C(=O)C2=CC(=O)C(=O)C2)cc1OC", "SF-539 CNS", "inactive"],
  ["CCOC(=O)C1=C(C)N2C(=NC3=C(CCCC/C3=C\\c3cc(OC)c(OC)c(OC)c3)C2c2cc(OC)c(OC)c(OC)c2)S1 (stereo not drawn)", "SF-539 CNS", "inactive"],
  ["CC(C)NCC(O)COc1ccc(CCOCC2CC2)cc1 (stereo not drawn)", "SF-539 CNS", "inactive"],
  ["CS(=O)(=O)Nc1cccc(C(=O)NCc2ccc(N3CCOCC3)cc2)c1", "SF-539 CNS", "inactive"]
]}

Please indicate how the test categorized O=C(N/N=C(\CS(=O)(=O)c1ccccc1)c1cc2ccccc2oc1=O)c1ccccc1 .
inactive

Queued: O=C(N/N=C(\CS(=O)(=O)c1ccccc1)c1cc2cc(Br)ccc2oc1=O)c1ccccc1
inactive

Queued: COc1cccc(C2C3=C(COC3=O)N(CCO)c3cc4c(cc32)OCO4)c1 (stereo not drawn)
active

====

Tested on: KM12 colon
Assay: NCI-60 one-dose screen, 48 h (100 = growth as untreated, 0 = no growth, -100 = all killed)
Settings: 10 µM unless noted
Description: Growth inhibition of the KM12 human tumor cell line is measured as a screen for anti-cancer activity. Cells are grown in 96 well plates and exposed to the test compound for 48 hours. Compounds are tested at a single concentration, which is 10^-5 M for most compounds. The reported endpoint is percent growth (GI% or GIPRCNT), where numbers from 0 - 100% represent growth inhibition, and numbers from -100% - 0 represent cell death. For example, a value of 40 represents 60% growth inhibition. […]
This is part of a sample that, as a whole, favours compounds with a hit. Of some 83,000 tested, about 20% had one in any assay.
observationType: growth (%)
One number for each entry, in %.

For orientation, consider the following solved cases.
{"columns": ["compound", "targetOrTestSystem", "valueUnit", "growth"],
 "data": [
  ["CCN(CC)c1ccc(/C=C(\\C#N)c2cc3ccccc3[nH]2)cc1", "KM12 colon", "%", 21.7],
  ["Cc1ccc(S(=O)(=O)N2CCc3ccc(O)c4c3C2Cc2cc(Cl)ccc2-4)cc1 (stereo not given)", "KM12 colon", "%", 30.8],
  ["C=C(C)COC(=O)c1ccccc1C(=O)OCC1(C)CO1 (stereo not given)", "KM12 colon", "%", 112],
  ["O=c1[nH]c(=S)c2c(n1CCCO)CCC2", "KM12 colon", "%", 105]
]}

Switching to the query record.
Observed growth on KM12 colon for CC(C)(C)[Si](C)(C)OC1[C@@H](COC(N)=O)O[C@@H](n2cnc3c(N)ncnc32)[C@H]1O[Si](C)(C)C(C)(C)C (stereo not given in full) , please.
76

====

Tested on: MOLT-4 leukemia
Assay: NCI-60 one-dose screen, 48 h (100 = growth as untreated, 0 = no growth, -100 = all killed)
Conditions: 10 µM unless noted
About 83,000 compounds went through this panel and 20% of them were active in at least one assay; those are over-represented in the sample as a whole. The source made the active and inactive calls. The calls were made as follows: active = growth percent below 10; inactive = the rest.
observationType: growth

{"columns": ["molecule", "growth"],
 "data": [
  ["Cc1cc(=O)c2c(C)ccc(C)c2[nH]1", "100% (inactive)"],
  ["O=C1/C(=C/c2ccc([N+](=O)[O-])cc2)Oc2ccc(O)cc21", "18.7% (inactive)"],
  ["O=C1CC(c2ccsc2)c2snc(-c3ccc(Cl)cc3)c2N1 (stereo not given)", "14.5% (inactive)"]
]}

Could you tell me growth for each of these molecules? They are listed below.
1. CCCCc1ccc(C(O)(CCN2CC3CCC(CC3)C2)c2ccccc2)cc1 (stereo not given)
2. COc1ccc(/C=C2\CN(Cc3cn(CCCNc4ccnc5cc(Cl)ccc45)nn3)C/C(=C\c3ccc(OC)cc3)C2=O)cc1

1: 80.9% (inactive); 2: 32.2% (inactive)

====

Tested on: SW-620 colon
Test: NCI-60 one-dose screen, 48 h (100 = growth as untreated, 0 = no growth, -100 = all killed)
Conditions: 10 µM unless noted
Description: Growth inhibition of the SW-620 human tumor cell line is measured as a screen for anti-cancer activity. Cells are grown in 96 well plates and exposed to the test compound for 48 hours. Compounds are tested at a single concentration, which is 10^-5 M for most compounds. The reported endpoint is percent growth (GI% or GIPRCNT), where numbers from 0 - 100% represent growth inhibition, and numbers from -100% - 0 represent cell death. For example, a value of 40 represents 60% growth inhibition. […]
The panel holds about 83,000 compounds, 20% with a hit somewhere; the sample as a whole holds those more often.
Kindly supply the reported growth values for the records listed here.
Answers are plain numbers, in %.

For orientation, consider the following solved cases.
{"columns": ["compound", "targetOrTestSystem", "valueUnit", "valueMeasured"],
 "data": [
  ["Nc1cc(Br)c(-c2nnc(CCC(=O)c3nc4ccccc4[nH]3)o2)c(Br)c1", "SW-620 colon", "%", 72.1],
  ["COc1ccc(-c2c3c(N)c4c(nc3nc3c2c(C)nn3-c2ccccc2)CCCC4)cc1", "SW-620 colon", "%", 68.2],
  ["COC(=O)c1c2c(c(C)[n+]([O-])c1C)C(=O)C=C(NCc1cccc(OC)c1)C2=O", "SW-620 colon", "%", -41.2],
  ["CC(=O)Nc1ccc(S(=O)(=O)N/N=C\\c2ccc(Cl)c(Cl)c2)cc1", "SW-620 colon", "%", 99.7],
  ["N#Cc1ccc(C(F)(F)F)nc1N1CCC(C(=O)Nc2ccc(Cl)cc2)CC1", "SW-620 colon", "%", 75.4]
]}

Could you tell me growth for each of these compounds? They are listed below.
1. Clc1ccc(Nc2ccnc(N3CCN(c4ccnc5cc(Cl)ccc45)CC3)n2)cc1
2. COc1ccc(OC2=CC(=O)c3ccc(C)nc3C2=O)cc1
3. Nc1cccc2c(=S)c3ccccc3[nH]c12
4. COc1cc(/C=N/NC(=O)c2cnn3c2NC(c2ccccc2)C3)cc(OC)c1OC (stereo not given)
5. O=C1c2[nH]cc(CN[C@@H]3CCCN3)c2C(=O)c2c1c(O)c1ccccc1c2O

1. 48.5
2. 94.9
3. 92.6
4. 32.8
5. -98.1

====

Kindly supply the reported growth values for the records listed here.
System: T-47D breast
Experiment: NCI-60 one-dose screen, 48 h (100 = growth as untreated, 0 = no growth, -100 = all killed)
Conditions: 10 µM
The panel holds about 83,000 compounds, 20% with a hit somewhere; the sample as a whole holds those more often.
Numbers only, in %.

For orientation, consider the following solved cases.
{"columns": ["compound", "valueUnit", "growth"],
 "data": [
  ["O=C(N/N=C(\\CS(=O)(=O)c1ccccc1)c1cc2ccccc2oc1=O)c1ccccc1", "%", 101],
  ["Cc1ccc(-c2nnc(COc3ccc(-c4nnc(N)s4)cc3)o2)cc1", "%", 101]
]}

Could you tell me growth for each of these compounds? They are listed below.
1. Cc1ccc2c(c1)c(Sc1ccc(C(=O)NO)cc1)c1n2CN(C)CC1
2. Cc1nc(NC(=O)COc2cccc(/C=C3\COc4ccccc4C3=O)c2)sc1C
3. COc1nc2c(cc1S(=O)(=O)c1ccccc1)CCc1c-2cnn1-c1cccc(Cl)c1
4. Cc1ccc(S(=O)(=O)N2CCc3ccc(O)c4c3C2CCc2ccccc2-4)cc1 (stereo not given)
5. COc1cccc(-c2ccc3c(c2)C2CCN(Cc4ccccc4)C3C2)c1 (stereo not given)
6. O=C(NCc1cccnc1)c1ccc([N+](=O)[O-])o1
7. COC(=O)/C=C1/CCC2C3CCC4=CC(=O)C(Br)CC4(C)C3C(=O)CC12C (stereo not given)

23.4
53.2
59.6
94
76.3
57
54.8

Observed growth on T-47D breast for O=C1/C(=C/c2ccc(Cl)cc2)N=C(c2ccccc2)N1CCc1cccs1 , please.
97.7
